Ref: paper PMC12040169

assay: in vitro; settings: human, hela cells, % viability
Rule: viability at 28.5 h, 10 µM below 90% gives criterion met. Equal to or above 90% gives criterion not met.

{"columns": ["COMPOUND", "GROUP"],
 "data": [
  ["CN1CCCN(Cc2ccc3c(c2)c(=O)c(C(=O)NCc2ccc(Cl)cc2)cn3C)CC1 [CBK018019]", "criterion met"],
  ["COc1ccc2c(c1OC)C(=O)N(c1cccc([N+](=O)[O-])c1)C2 [CBK115318]", "criterion not met"],
  ["CCCN1CC(NC(=O)c2cc(COc3cccc(F)c3)[nH]n2)CC1=O (stereo not shown) [CBK306912]", "criterion met"],
  ["CC(C)c1ccc(/C=C/C(=O)NCc2cccs2)cc1 [CBK149587]", "criterion not met"],
  ["Cc1c(C(=O)N2CCCC(c3cc4ncccc4[nH]3)C2)cnn1C (stereo not shown) [CBK283420]", "criterion not met"],
  ["N=c1c2c(-c3ccccc3)c(-c3ccccc3)n(Cc3ccco3)c2ncn1CCN1CCOCC1 [CBK268545]", "criterion not met"],
  ["CCCOc1ccc(C(=O)NCc2ccccn2)cc1 [CBK269789]", "criterion not met"],
  ["N#Cc1ccnc(SCC(=O)Nc2ccc(CN3CCOCC3)cc2)c1 [CBK306010]", "criterion not met"],
  ["COc1ccc(CCN(C)C(=O)CCCc2cc3ccccc3[nH]2)cc1OC [CBK051152]", "criterion not met"],
  ["CCOC(=O)c1cccc(NC(=O)CSc2nc3cccnc3[nH]2)c1 [CBK269354]", "criterion not met"],
  ["CCN(Cc1ccccn1)C(=O)NC(C)c1cccc(NC(C)=O)c1 (stereo not shown) [CBK305380]", "criterion not met"],
  ["CCC(C(=O)NCCCN1CCOCC1)c1ccccc1 (stereo not shown) [CBK265103]", "criterion not met"],
  ["N#CCCN(CCN1CCCC1)S(=O)(=O)c1cccc2nsnc12 [CBK261141]", "criterion not met"],
  ["CC(/C=C1\\SC(=S)N(CCC(=O)Nc2ccc(O)c(C(=O)O)c2)C1=O)=C\\c1ccccc1 [CBK263875]", "criterion not met"],
  ["O=C(COc1ccc(-c2cnc3ccccc3n2)cc1)c1cccc([N+](=O)[O-])c1 [CBK266367]", "criterion met"],
  ["O=C(Nc1cccc2cccnc12)c1ccc([N+](=O)[O-])o1 [CBK268007]", "criterion met"],
  ["Cc1ccc(S(=O)(=O)N(CC(=O)NCC2CCCO2)c2cccc(C)c2C)cc1 (stereo not shown) [CBK265339]", "criterion met"]
]}

====

assay: in vitro; settings: human, hela cells, % viability
As shown below, each of these compounds has a reported viability at 28.5 h, 10 µM value.

{"columns": ["COMPOUND", "viability at 28.5 h, 10 µM"],
 "data": [
  ["O=S(=O)(NCCc1c[nH]c2ccccc12)c1cccc2nsnc12", "83.4%"],
  ["NC(=O)C(NCc1ccccc1)c1ccc(Cl)cc1 (stereo not shown)", "84%"],
  ["COc1ccc(C)cc1S(=O)(=O)N1CCCC(C(=O)NCc2ccccn2)C1 (stereo not shown)", "102%"],
  ["Cc1nn(C)c(Sc2ccccc2)c1[N+](=O)[O-]", "97.9%"],
  ["N=C(N)Nc1nc(-c2ccccc2)c2cc(F)ccc2n1", "82.7%"],
  ["COc1ccc(CCOc2nccnc2-c2ccc(OC(F)(F)F)cc2)cc1", "109%"],
  ["NC(=O)CN(Cc1ccc(Cl)cc1)S(=O)(=O)c1ccccc1", "99.5%"],
  ["Cc1ccc(C2CCCN2C(=O)Cn2cccc(C(=O)NCc3ccccc3)c2=O)cc1C (stereo not shown)", "89.5%"],
  ["CC(C)c1cc(C(=O)N2CCCCCC2c2cnn(C)c2)no1 (stereo not shown)", "108%"],
  ["Cc1ccc(SCc2ccc(C(=O)NCc3cccnc3)cc2)cc1", "96.9%"]
]}

====

assay: in vitro; details: human, hela cells, % viability, bulk resorufin, single well
As shown below, each of these compounds has a reported viability at 28.5 h, 10 µM value.
MEASUREMENT_NAME: viability at 28.5 h, 10 µM

{"columns": ["COMPOUND", "MEASUREMENT_NAME", "REPORTED"],
 "data": [
  ["O=C(N[C@H]1CCN2C(=O)N(CCCl)C(=O)[C@@H]2C1)c1cccs1", "viability at 28.5 h, 10 µM", "90.8%"],
  ["O=C(N/N=C1/CN2CCC1CC2)c1cccc(O)c1 [CBK262188C]", "viability at 28.5 h, 10 µM", "93.5%"],
  ["O=C1NC(=O)C(=Cc2cc(Br)ccc2OCc2cccc(F)c2)C(=O)N1", "viability at 28.5 h, 10 µM", "104%"],
  ["CC(C)(C)OC(=O)N1CCC2(CC1)OCc1cc(-c3cccc(C(=O)O)c3)ccc1O2", "viability at 28.5 h, 10 µM", "87.5%"],
  ["CC(=O)c1c(C)[nH]c(C(=O)N2CCC(C#N)(c3ccccc3)CC2)c1C", "viability at 28.5 h, 10 µM", "93.3%"],
  ["COc1ccc(N2C(=O)/C(=C/c3ccc(-c4cc(C(=O)O)ccc4Cl)o3)C(=O)NC2=S)cc1", "viability at 28.5 h, 10 µM", "97.8%"],
  ["O=[N+]([O-])c1ccc2c(c1)COC1(CCNCC1)O2", "viability at 28.5 h, 10 µM", "83.7%"],
  ["CN(C)C(=O)c1ccc(Cn2nc(C(=O)Nc3nccs3)c3ccccc32)cc1", "viability at 28.5 h, 10 µM", "95.4%"],
  ["NS(=O)(=O)c1ccc(-c2ccc(/C=C3\\C(=O)NC(=O)N(c4ccc(Br)cc4)C3=O)o2)cc1", "viability at 28.5 h, 10 µM", "93.2%"],
  ["COc1ccc(Cl)cc1N1CCNCC1 [CBK013449C]", "viability at 28.5 h, 10 µM", "89.4%"],
  ["COc1ccc(O)c(CN2CCN(Cc3ccc(Cl)cc3)CC2)c1", "viability at 28.5 h, 10 µM", "110%"],
  ["N#CC1(c2ccccc2)CCN(C(=O)c2ccc(S(N)(=O)=O)cc2)CC1", "viability at 28.5 h, 10 µM", "96.5%"],
  ["COC(=O)c1ccccc1NC(C)=O", "viability at 28.5 h, 10 µM", "107%"],
  ["COc1ccc(CCNCc2cccc(Cl)c2)cc1", "viability at 28.5 h, 10 µM", "90%"],
  ["COc1ccc(N2C(=O)NC(=O)/C(=C/c3cn(CC(=O)Nc4ccccc4)c4ccccc34)C2=O)cc1", "viability at 28.5 h, 10 µM", "110%"],
  ["O=C1NC(=S)NC(=O)C1=Cc1ccc(OCc2ccccc2F)c(Br)c1", "viability at 28.5 h, 10 µM", "97.7%"],
  ["Cc1ccccc1N1C(=O)/C(=N\\Nc2ccc(S(=O)(=O)O)cc2)C(=O)NC1=S", "viability at 28.5 h, 10 µM", "97.7%"],
  ["O=C(Nc1ccccc1Br)N1CCC2(CC1)OCCO2", "viability at 28.5 h, 10 µM", "90.7%"],
  ["COc1ccc(CCN2C(=O)NC(=O)/C(=C\\c3c(C)[nH]c4ccccc34)C2=O)cc1OC", "viability at 28.5 h, 10 µM", "81.6%"],
  ["C[C@@H]1[C@H]2Cc3ccc(O)cc3[C@]1(C)CCN2Cc1ccoc1 [CBK005262G]", "viability at 28.5 h, 10 µM", "103%"],
  ["CCOC(=O)N1CCC2(CC1)Oc1ccc(-c3ccccc3)cc1O2", "viability at 28.5 h, 10 µM", "101%"],
  ["c1ccc2cc(-c3ccc4c(c3)COC3(CCNCC3)O4)ccc2c1", "viability at 28.5 h, 10 µM", "88%"],
  ["COCCn1cc(C(=O)N(CC(N)=O)C2CCCC2)c2ccccc21", "viability at 28.5 h, 10 µM", "84.1%"],
  ["CSc1ccc(CN2CCN(Cc3ccc(Br)cc3)CC2)cc1", "viability at 28.5 h, 10 µM", "79.2%"],
  ["N#CC1(c2ccccc2)CCN(C(=O)c2ccc3c(c2)no[n+]3[O-])CC1", "viability at 28.5 h, 10 µM", "92.2%"],
  ["CCn1nc(-c2ccccc2)nc2c(=O)n(C)c(=O)nc1-2", "viability at 28.5 h, 10 µM", "92.1%"],
  ["CC(=O)[C@H]1C[C@@H](CC(=O)N2CCC(C(C)=O)(c3ccccc3)CC2)C1(C)C", "viability at 28.5 h, 10 µM", "109%"],
  ["CCOC(=O)N1CCC2(CC1)OCc1cc(C#N)ccc1O2", "viability at 28.5 h, 10 µM", "87%"],
  ["O=C(c1ccco1)N1CCC2(CC1)OCc1cc(Cl)ccc1O2", "viability at 28.5 h, 10 µM", "94.4%"],
  ["CCN(CC)CCN/C=C1/C(=O)NC(=O)N(Cc2ccccc2)C1=O", "viability at 28.5 h, 10 µM", "88.9%"],
  ["O=C(NCCCn1ccnc1)c1cc([N+](=O)[O-])cc([N+](=O)[O-])c1", "viability at 28.5 h, 10 µM", "87.5%"],
  ["O=[N+]([O-])c1ccc(-n2cnc3ccccc32)c([N+](=O)[O-])c1", "viability at 28.5 h, 10 µM", "91.9%"],
  ["CCN1C(=O)/C(=C\\c2ccc(-c3cccc(C(=O)O)c3C)o2)C(=O)N(c2ccc(Cl)cc2)C1=S", "viability at 28.5 h, 10 µM", "99.9%"],
  ["O=C(Nc1ccccc1)Nc1cnns1", "viability at 28.5 h, 10 µM", "102%"],
  ["CCCCN1C(=O)C(O)(c2c(C)nn(CCC#N)c2N)c2ccccc21 (stereo not shown)", "viability at 28.5 h, 10 µM", "110%"],
  ["CC1=CC(C)C(COC(N)=O)(COC(N)=O)C(C)C1 (stereo not shown)", "viability at 28.5 h, 10 µM", "93.7%"],
  ["COc1cc(C(=O)Nc2ccc3c(c2)COC2(CCN(C(=O)OC(C)(C)C)CC2)O3)cc(OC)c1OC", "viability at 28.5 h, 10 µM", "85.9%"]
]}
